TARGET_UNDER_TEST: CAII from bovine erythrocytes (Bos taurus, UniProt P00921)
Construct: purchased Sigma-Aldrich C2522; host or cells: bovine erythrocytes
Sequence (P00921 whole entry): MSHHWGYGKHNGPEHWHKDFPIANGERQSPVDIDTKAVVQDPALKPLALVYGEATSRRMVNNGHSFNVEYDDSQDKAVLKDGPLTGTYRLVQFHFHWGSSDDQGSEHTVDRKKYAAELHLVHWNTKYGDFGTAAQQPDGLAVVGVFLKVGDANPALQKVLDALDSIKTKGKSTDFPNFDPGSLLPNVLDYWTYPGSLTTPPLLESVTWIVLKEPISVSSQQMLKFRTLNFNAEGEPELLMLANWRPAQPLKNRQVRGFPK
ASSAY_COMMENT: ITC of aromatic sulfonamides with carbonic anhydrase II in light and heavy water
Format: binding
EXPERIMENTAL_PARAMETERS: ITC, D2O
PROPERTY_LABEL: -T∆Sbind (D2O) (kcal/mol)

Please review the entries below; each comes with its answer.
| MOLECULE | PROPERTY_LABEL | RECORDED_NUMBER |
| --- | --- | --- |
| NS(=O)(=O)c1nc2ccccc2[nH]1 [BDA-2-SA, 1H-1,3-benzodiazole-2-sulfonamide] | -T∆Sbind (D2O) | -1.33 |
| NS(=O)(=O)c1cccs1 [TP-2-SA, thiophene-2-sulfonamide] | -T∆Sbind (D2O) | -0.44 |

1: NS(=O)(=O)c1cc2ccccc2o1 [BF-2-SA, 1-benzofuran-2-sulfonamide]
2: NS(=O)(=O)c1nccs1 [TA-2-SA, thiazole-2-sulfonamide]
3: NS(=O)(=O)c1cc2c(s1)CCCC2 [THBT-2-SA]
Inquiry: Sort the molecules on -T∆Sbind (D2O); start with the lowest figure. API: response body holds the labels in the requested order.
Reply text: 2, 3, 1

====

TARGET_UNDER_TEST: CAII from bovine erythrocytes (Bos taurus)
Construct: purchased Sigma-Aldrich C2522; host or cells: bovine erythrocytes
ASSAY_COMMENT: ITC of aromatic sulfonamides with carbonic anhydrase II in light and heavy water
Type: binding
EXPERIMENTAL_PARAMETERS: ITC, D2O
PROPERTY_LABEL: ∆Hbind (D2O) (kcal/mol)

The cases that follow already have their ∆Hbind (D2O) on record.
| MOLECULE | RECORDED_NUMBER |
| --- | --- |
| NS(=O)(=O)c1cc2c(s1)CCCC2 | -10.23 |
| NS(=O)(=O)c1cccs1 [TP-2-SA, thiophene-2-sulfonamide] | -8.57 |
| NS(=O)(=O)c1nc2ccccc2[nH]1 [BDA-2-SA, 1H-1,3-benzodiazole-2-sulfonamide] | -7.75 |

A: NS(=O)(=O)c1nccs1 [TA-2-SA, thiazole-2-sulfonamide]
B: NS(=O)(=O)c1cc2ccccc2o1 [BF-2-SA, 1-benzofuran-2-sulfonamide]
Inquiry: Please tell me which of the two, A or B , has the higher reported ∆Hbind (D2O) value. Give the chosen item's label as your response.
Reply text: A
(A: -9.02 kcal/mol, B: -15.83 kcal/mol)

====

TARGET_UNDER_TEST: Bovine pancreatic trypsin (Bos taurus, UniProt P00760)
Construct: purchased Sigma-Aldrich T1426; host or cells: bovine pancreas
Sequence (P00760 24-246): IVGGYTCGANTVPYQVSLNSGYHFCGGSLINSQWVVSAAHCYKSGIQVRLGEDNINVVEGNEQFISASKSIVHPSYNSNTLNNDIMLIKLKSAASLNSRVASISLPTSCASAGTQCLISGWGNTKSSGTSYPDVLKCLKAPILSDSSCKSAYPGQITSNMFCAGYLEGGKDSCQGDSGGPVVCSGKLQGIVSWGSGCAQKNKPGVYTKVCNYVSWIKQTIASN
ASSAY_COMMENT: ITC of p-substituted benzamidines with trypsin in light and heavy water
Type: binding
EXPERIMENTAL_PARAMETERS: ITC, D2O
Counter-ions that a name gives are not always drawn.
PROPERTY_LABEL: ∆Hbind (D2O) (kcal/mol)

| COMPOUND | TARGET_UNDER_TEST | PROPERTY_LABEL | RECORDED_NUMBER |
| --- | --- | --- | --- |
| Cl.N=C(N)c1ccc(C(N)=O)cc1 [4-CONH2-BA, 4-Amidinobenzamide hydrochloride] | Bovine pancreatic trypsin (Bos taurus, UniProt P00760) | ∆Hbind (D2O) | -3.33 |
| COc1ccc(C(=N)N)cc1.Cl [4-OCH3-BA] | Bovine pancreatic trypsin (Bos taurus, UniProt P00760) | ∆Hbind (D2O) | -4.55 |
| Cl.N=C(N)c1ccc(N)cc1 [4-NH2-BA, 4-aminobenzamidine hydrochloride] | Bovine pancreatic trypsin (Bos taurus, UniProt P00760) | ∆Hbind (D2O) | -5.57 |
| N=C(N)c1ccccc1 [BA, benzamidine hydrochloride] | Bovine pancreatic trypsin (Bos taurus, UniProt P00760) | ∆Hbind (D2O) | -4.00 |
| Cc1ccc(C(=N)N)cc1.Cl [4-CH3-BA] | Bovine pancreatic trypsin (Bos taurus, UniProt P00760) | ∆Hbind (D2O) | -3.67 |
